TESTED TARGET: human 5-HT6 (h5-HT6) receptors (Homo sapiens, UniProt P50406)
Construct: purchased Receptor Biology, Inc. (Beltsville, Md.); host or cells: HEK-293 cells
Sequence (P50406 whole entry): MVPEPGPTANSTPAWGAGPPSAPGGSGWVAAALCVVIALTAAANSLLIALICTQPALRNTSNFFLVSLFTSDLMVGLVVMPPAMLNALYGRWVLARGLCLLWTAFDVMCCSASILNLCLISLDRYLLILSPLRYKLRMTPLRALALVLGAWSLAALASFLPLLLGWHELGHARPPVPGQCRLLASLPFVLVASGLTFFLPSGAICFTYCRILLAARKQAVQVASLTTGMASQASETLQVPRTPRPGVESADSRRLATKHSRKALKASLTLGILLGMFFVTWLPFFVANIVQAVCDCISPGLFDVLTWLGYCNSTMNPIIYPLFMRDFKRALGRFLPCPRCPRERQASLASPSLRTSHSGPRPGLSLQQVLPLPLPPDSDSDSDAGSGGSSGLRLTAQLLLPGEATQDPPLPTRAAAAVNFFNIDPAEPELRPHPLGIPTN
PROTOCOL DETAILS: Competition radioligand binding, h5-HT6 ([3H]LSD)
CONDITION CONTEXT: membranes of HEK-293 cells, 1 hr RT
EXPERIMENTAL ENDPOINT: Ki (nM)
One number for each entry, in nM.

- Cc1ccc(CN(CC[C@H]2CCCN2C)Cc2ccc(C)cc2)cc1: 53

Fill in Ki for each of the 7 compounds listed.
1. CN1CCCC1CCN(Cc1ccc(Cl)cc1)Cc1ccc(Cl)cc1 (racemic)
2. Cc1cc(CN(CC[C@@H]2CCCN2C)Cc2ccc(Cl)cc2)oc1C
3. CN1CCC[C@H]1CCN(Cc1ccc(O)cc1)Cc1cccc(O)c1
4. Cc1ccc(CN(CC[C@@H]2CCCN2C)Cc2ccc(C)cc2)cc1
5. CN1CCC[C@H]1CCN(Cc1ccc(Cl)cc1)Cc1ccc(O)cc1Cl
6. CN1CCCC1CCN(Cc1ccccc1)Cc1ccc(C(C)(C)C)cc1 (stereo not shown)
7. CSc1ccc(CN(CC[C@@H]2CCCN2C)Cc2ccc(Cl)cc2)cc1

Solution:
1. 42
2. 54
3. 880
4. 63
5. 49
6. 45
7. 132

###

TESTED TARGET: UniProt:P14416
Sequence (P14416 1-414 isoform P14416-2): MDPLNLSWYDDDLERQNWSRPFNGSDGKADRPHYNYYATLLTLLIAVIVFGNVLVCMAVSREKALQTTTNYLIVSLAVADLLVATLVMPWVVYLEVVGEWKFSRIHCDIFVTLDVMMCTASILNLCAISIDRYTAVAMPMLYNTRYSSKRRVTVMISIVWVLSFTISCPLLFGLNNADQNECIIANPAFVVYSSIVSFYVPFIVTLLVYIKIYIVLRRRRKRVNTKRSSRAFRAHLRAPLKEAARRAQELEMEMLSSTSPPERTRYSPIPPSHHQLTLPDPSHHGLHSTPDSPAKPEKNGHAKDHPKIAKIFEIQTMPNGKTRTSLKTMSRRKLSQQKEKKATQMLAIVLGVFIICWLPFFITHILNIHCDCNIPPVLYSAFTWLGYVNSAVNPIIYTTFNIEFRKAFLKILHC
PROTOCOL DETAILS: Competition radioligand binding, hD2s DA ([3H]Spiperone)
CONDITION CONTEXT: read-out: Ki (nM) D2; membranes of A9 L cells, [3H]Spiperone, 2 hr RT
EXPERIMENTAL ENDPOINT: Ki (nM)
Numbers only, in nM.

Exercise: Consider the compound CCN1CCC[C@H]1CCN(Cc1ccc(C)cc1)Cc1ccc(C)cc1 and give its measured Ki.
Solution: 380

###

TESTED TARGET: human 5-HT7B (h5-HT7b) receptors (Homo sapiens)
Construct: expressed in transfected cells
PROTOCOL DETAILS: Competition radioligand binding, h5-HT7b ([3H]5-CT)
CONDITION CONTEXT: membranes of HEK 293 cells, 2 hr 37° C., read-out: Ki (nM) 5-HT7
Provide the recorded Ki for the entries that follow.
Give bare numbers, in nM.

Some entries whose results are on file:
- CN1CCC[C@H]1CCN(Cc1ccc(C(C)(C)C)cc1)Cc1cccc(O)c1: 66
- CN1CCC[C@H]1CCN(Cc1ccc(Cl)cc1)Cc1ccccc1Cl: 260
- Cc1ccc(CN(CC[C@@H]2CCCN2C)Cc2ccc(C)cc2)cc1: 2.1
- CN1CCC[C@H]1CCN(Cc1ccc(Cl)cc1)CC1CC=CCC1 (some centres unmarked): 180
- CN1CCCC1CCN(CCc1ccccc1)CCc1ccccc1 (racemic): 3200
- CN1CCC[C@H]1CN(Cc1ccccc1)Cc1ccccc1: 170
- COc1cccc(CN(CC[C@@H]2CCCN2C)Cc2ccc(Cl)cc2)c1: 6.6

Consider now this further molecule.
Exercise: May I ask what Ki has been recorded for CCc1ccc(CN(CCC2CCCN2C)Cc2ccccc2)cc1 (centres unmarked) ?
Solution: 19

###

TESTED TARGET: human 5-HT7B (h5-HT7b) receptors (Homo sapiens, UniProt P34969)
Construct: expressed in transfected cells
Sequence (P34969 1-432 limits assumed): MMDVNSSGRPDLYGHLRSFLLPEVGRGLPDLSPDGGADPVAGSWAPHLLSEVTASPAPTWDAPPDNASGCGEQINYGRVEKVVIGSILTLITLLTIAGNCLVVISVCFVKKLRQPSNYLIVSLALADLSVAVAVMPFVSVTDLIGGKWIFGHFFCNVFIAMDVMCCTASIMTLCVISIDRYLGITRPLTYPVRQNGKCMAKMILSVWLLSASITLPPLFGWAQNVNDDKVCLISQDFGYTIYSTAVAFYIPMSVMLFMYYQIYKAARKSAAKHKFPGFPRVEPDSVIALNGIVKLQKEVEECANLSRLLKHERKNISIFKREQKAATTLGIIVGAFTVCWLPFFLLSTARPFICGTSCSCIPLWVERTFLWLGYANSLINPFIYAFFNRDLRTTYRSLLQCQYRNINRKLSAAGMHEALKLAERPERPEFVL
PROTOCOL DETAILS: Competition radioligand binding, h5-HT7b ([3H]5-CT)
CONDITION CONTEXT: membranes of HEK 293 cells, 2 hr 37° C., read-out: Ki (nM) 5-HT7
For each entry below, report its log10 Ki value.
Short version: log10 scale, Ki, nM.

Take a look at these entries with their results.
• CSc1ccc(CN(CC[C@@H]2CCCN2C)Cc2ccc(Cl)cc2)cc1 [Example 40] = 0.81
• CN1CCC[C@H]1CCN(Cc1ccc(O)cc1)Cc1ccc(Cl)cc1 [Example 49] = 0.28
• CN1CCCC1CCN(Cc1ccccc1)Cc1ccc(F)cc1 (stereo not shown) [Example 26] = 1.26
• CN1CCC[C@H]1CCN(Cc1ccc(Cl)cc1)Cc1ccc(O)c([N+](=O)[O-])c1 [Example 51] = 2.30

Each compound below has a reported value. Please supply its log10 Ki.
1. Cc1ccc(CN(CC[C@H]2CCCN2C)Cc2ccc(C)cc2)cc1 [Example 6]
2. CN1CCCC1CCN(Cc1ccccc1)Cc1cccc2ccccc12 (stereo not shown) [Example 25]
3. COc1ccc(CN(CC[C@@H]2CCCN2C)Cc2cccc(O)c2)cc1 [Example 36]
4. CN1CCCC1CCN(Cc1ccc(Cl)cc1)Cc1ccc(Cl)cc1 (racemic) [Example 5]
5. Cc1cccc(CN(CCC2CCCN2C)Cc2ccccc2)c1 (stereo not shown) [Example 30]
6. CCN1CCC[C@H]1CCN(Cc1ccc(C)cc1)Cc1ccc(C)cc1 [Example 54]

Solution:
1: 1.90; 2: 1.65; 3: 1.69; 4: 0.67; 5: 1.30; 6: 1.80
